experimental_target: T1, human GFRAL expressed on cells (human, UniProt Q6UXV0 20-394)
T1 sequence: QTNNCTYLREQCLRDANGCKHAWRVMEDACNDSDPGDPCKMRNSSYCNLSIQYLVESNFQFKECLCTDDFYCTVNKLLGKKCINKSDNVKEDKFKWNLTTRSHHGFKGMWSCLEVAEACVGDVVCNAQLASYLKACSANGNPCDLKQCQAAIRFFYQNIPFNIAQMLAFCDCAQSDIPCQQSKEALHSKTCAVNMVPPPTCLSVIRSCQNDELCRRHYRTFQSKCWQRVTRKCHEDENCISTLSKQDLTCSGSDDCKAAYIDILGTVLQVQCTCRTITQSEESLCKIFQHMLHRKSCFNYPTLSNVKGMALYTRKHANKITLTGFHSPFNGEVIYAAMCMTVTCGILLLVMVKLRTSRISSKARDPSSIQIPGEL
experiment_summary: cell-based or functional assay
Consider the following binders and their measured IC50, ERK phosphorylation in U2OS hGFRAL/hRET cells readings.
Answer format: numeric, pM implied, no suffix.

# binder, units_symbol, meas_value
records = [
    ("antibody designated 19K19 (antibody, V domains shown, mouse hybridoma monoclonal) VH: QVQLQQSGPDLVKPGASVKISCKASGYAFTSYWMNWVKQRPGKGLEWIGRIYPGDGDTNYNGKFKGKATLTADKSSSTAYMQLSSLTSEDSAVYFCARAYLLRLRRTGYYAMDYWGQGTSVTVSS VL: DVVLTQTPLSLPVNIGDQASISCKSTKSLLNSDEFTYLDWYLQKPGQSPQLLIYLVSNRFSGVPDRFSGSGSGTDFTLKISRVEAEDLGVYYCFQSNYLPYTFGGGTKLEIK", "pM", 610),
    ("antibody designated 8D8 (antibody, V domains shown, mouse hybridoma monoclonal) VH: QVQLKESGPGLVAPSQSLSITCTVSGFSLSRYSVHWVRQPPGKGLEWLGMIWGFGSTDYNSALKSRLSITKDNSKSQFFLKMNSLQTDDTAMYYCARIHTTAGSYWGQGTLVTVSA VL: DIVMTQSQKFMSTSIGDRVSVTCKASQNVGTNVAWYQQKPGQSPKALVYSTSYRYSGVPDRFTGSGSGTDFTLTISNVQSEDLAEYFCHQYNSYPLTFGAGTKLELK", "pM", 630),
]

Here is another binder to look at.
Quick note, IC50, ERK phosphorylation in U2OS hGFRAL/hRET cells for antibody designated 25M22 (antibody, V domains shown, mouse hybridoma monoclonal) VH: QVQLQQSGPDLVKPGASVKISCKASGYTFTSYWVNWMKQRPGKGLEWIGRIYPGDGDTNYNGKFKGKATLTADKSSSTAYMQLSSLTSEDSAVYFCARAYLLRLRRTGYYAMDYWGQGTSVTVSS VL: DVVLTQTPLSLPVNIGDQASISCKSTKSLLNSDEFTYLDWYLQKPGQSPQLLIFLVSNRFSGVPDRFSGSGSGTDFTLKISRVEAEDLGVYYCFQSNYLPYTFGGGTKLEIK landed at 530

These data points were gathered from patent US20170306031A1.
